conditions: in formic acid, 323.15 K
REPORTED_METRIC: solubility (mole fraction)
// no unit, no text: just the number

In plain terms, O=c1[nH]cc(F)c(=O)[nH]1 has a documented solubility (mole fraction) of 0.00238

###

details: in isopentanol, 303.15 K
REPORTED_METRIC: solubility (mole fraction)
API note: the answer field is a bare number with no unit suffix.

According to the records, this molecule O=c1[nH]cc(F)c(=O)[nH]1 displays solubility (mole fraction) of 0.00132

###

conditions: in n-pentanol, 323.15 K
REPORTED_METRIC: solubility (mole fraction)
In your answer, state the number alone without any accompanying words.

Value of solubility (mole fraction) reported for the compound O=c1[nH]cc(F)c(=O)[nH]1 is 0.00286
